# measurementTarget: Anti-CD28 Fab (SEQ ID NOs: 202, 203)
# Sequence (VH, as listed by the source, chain 1 of 2): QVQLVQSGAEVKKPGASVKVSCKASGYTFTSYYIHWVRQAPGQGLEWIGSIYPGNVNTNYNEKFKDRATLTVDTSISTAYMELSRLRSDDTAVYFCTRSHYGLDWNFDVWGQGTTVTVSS
# Sequence (VL, as listed by the source, chain 2 of 2): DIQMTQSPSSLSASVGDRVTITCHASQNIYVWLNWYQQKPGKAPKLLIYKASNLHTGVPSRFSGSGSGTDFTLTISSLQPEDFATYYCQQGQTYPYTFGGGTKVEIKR
# testSummary: phage binding ELISA on captured Fab;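 note: clonal phage supernatants added briefly to wells pre-incubated with CD28 antigen or with blocking buffer only, then washed, bound phage read by ELISA using HRP-coupled anti-M13 antibody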
The reader will find reported Anti-CD28 Fab (SEQ ID NOs: 202, 203) signal values listed item by item below.
parameter: Anti-CD28 Fab (SEQ ID NOs: 202, 203) signal

• YCDGHVTEYMAKCL [Phage-861] = 0.58
• YCEGHSSEYMVKCL [Phage-826] = 0.77
• YCDGHAWWYMEKCL [Phage-849] = 0.64
• YCDGHTGMYISKCL [Phage-774] = 0.98
• YCDGHSMEYMAKCL [Phage-821] = 0.8
• YCDGHLPEYMEKCL [Phage-880] = 0.43
• YCEGHDWMYMEKCL [Phage-801] = 0.91
• YCQGHALQYLQKCL [Phage-835] = 0.71

Source of measurements: patent US20260274955A1
